The measurements presented in this section are drawn from patent US20040037775A1.

Tested on: Molt-3 T-cells
Assay: cells
Assay type: cell-based, human
Conditions: Homo sapiens, MOLT-3, 72 h, read-out: IC50 Molt-3 T-cells
pIC50: −log10 of the molar value.

COMPOUND: CN(Cc1cnc2nc(N)nc(N)c2n1)c1ccc(C(=O)N[C@@H](CCC(=O)O)C(=O)O)cc1 [MTX, methotrexate, reference compound]
pIC50: 7.21

###

System: L1210 mouse leukemia cells
Experiment: cells
Type: cell-based
Conditions: 48 h
pIC50: −log10 of the molar value. Starred links: 1 amine or outer side, 2 acyl side, 3 side chain; linkers in the order of their positions; H or OH if unused. Positions of bridges follow the written chain, without caps; N, C: chain ends. Non-standard residues stand in square brackets, D forms with d. Residues, ends and D or L forms follow the SMILES beside them. *: point of attachment. DAMPA = CN(Cc1cnc2nc(N)nc(N)c2n1)c1ccc(C(=O)*)cc1; γGlu = O=C(O)[C@H](CCC(=O)[*:2])N[*:1]; Pen = CC(C)(S)[C@H](N)C(=O)O
Entries annotated with measured pIC50

COMPOUND: CC(C)[C@H](NC(=O)[C@H](CO)NC(=O)CNC(=O)CNC(=O)[C@H](CCCNC(=N)N)NC(=O)[C@@H]1CCCN1C(=O)CC[C@H](NC(=O)c1ccc(N(C)Cc2cnc3nc(N)nc(N)c3n2)cc1)C(=O)O)C(N)=O [MTX-PRGGSV] ({DAMPA-γGlu}-PRGGSV-NH2)
pIC50: 5.80

COMPOUND: CC[C@H](C)[C@@H]1NC(=O)[C@H](C(C)C)NC(=O)[C@H](CCCCN)NC(=O)[C@H](CO)NC(=O)[C@@H]2CCCN2C(=O)[C@H](CO)NC(=O)[C@H](C(C)C)NC(=O)[C@H](CO)NC(=O)[C@H]([C@@H](C)O)NC(=O)[C@H](CCC(N)=O)NC(=O)[C@@H](NC(=O)CC[C@H](NC(=O)c2ccc(N(C)Cc3cnc4nc(N)nc(N)c4n3)cc2)C(=O)O)C(C)(C)SSC[C@@H](C(=O)O)NC1=O [MTX-cIBL] ({DAMPA-γGlu}-[Pen]QTSVSPSKVIC-OH; disulfide 1-12)
pIC50: 5.04

COMPOUND: CC[C@H](C)[C@H](NC(=O)[C@@H](NC(=O)CC[C@H](NC(=O)c1ccc(N(C)Cc2cnc3nc(N)nc(N)c3n2)cc1)C(=O)O)C(C)C)C(=O)N[C@@H](CC(C)C)C(=O)N1CCC[C@H]1C(=O)N[C@@H](CCCNC(=N)N)C(=O)NCC(N)=O [MTX-VILPRG] ({DAMPA-γGlu}-VILPRG-NH2)
pIC50: 6.15

COMPOUND: CC(C)C[C@@H]1NC(=O)[C@H](C(C)C)NC(=O)[C@H](CO)NC(=O)CNC(=O)CNC(=O)[C@H](CCCNC(=N)N)NC(=O)[C@@H]2CCCN2C(=O)[C@@H](NC(=O)CC[C@H](NC(=O)c2ccc(N(C)Cc3cnc4nc(N)nc(N)c4n3)cc2)C(=O)O)C(C)(C)SSC[C@@H](C(=O)O)NC(=O)CNC(=O)[C@H]([C@@H](C)O)NC(=O)[C@H](C(C)C)NC1=O [MTX-cIBR] ({DAMPA-γGlu}-[Pen]PRGGSVLVTGC-OH; disulfide 1-12)
pIC50: 5.26

###

System: Molt-3 T-cells
Experiment: cells
Type: cell-based, human
Details: 72 h
pIC50: −log10 of the molar value. Starred links: 1 amine or outer side, 2 acyl side, 3 side chain; linkers in the order of their positions; H or OH if unused. Positions of bridges follow the written chain, without caps; N, C: chain ends. Non-standard residues stand in square brackets, D forms with d. Residues, ends and D or L forms follow the SMILES beside them. *: point of attachment. DAMPA = CN(Cc1cnc2nc(N)nc(N)c2n1)c1ccc(C(=O)*)cc1; γGlu = O=C(O)[C@H](CCC(=O)[*:2])N[*:1]; Pen = CC(C)(S)[C@H](N)C(=O)O

COMPOUND: CC[C@H](C)[C@@H]1NC(=O)[C@H](C(C)C)NC(=O)[C@H](CCCCN)NC(=O)[C@H](CO)NC(=O)[C@@H]2CCCN2C(=O)[C@H](CO)NC(=O)[C@H](C(C)C)NC(=O)[C@H](CO)NC(=O)[C@H]([C@@H](C)O)NC(=O)[C@H](CCC(N)=O)NC(=O)[C@@H](NC(=O)CC[C@H](NC(=O)c2ccc(N(C)Cc3cnc4nc(N)nc(N)c4n3)cc2)C(=O)O)C(C)(C)SSC[C@@H](C(=O)O)NC1=O [MTX-cIBL] ({DAMPA-γGlu}-[Pen]QTSVSPSKVIC-OH; disulfide 1-12)
pIC50: 5.57

COMPOUND: CC[C@H](C)[C@H](NC(=O)[C@@H](NC(=O)CC[C@H](NC(=O)c1ccc(N(C)Cc2cnc3nc(N)nc(N)c3n2)cc1)C(=O)O)C(C)C)C(=O)N[C@@H](CC(C)C)C(=O)N1CCC[C@H]1C(=O)N[C@@H](CCCNC(=N)N)C(=O)NCC(N)=O [MTX-VILPRG] ({DAMPA-γGlu}-VILPRG-NH2)
pIC50: 5.04

COMPOUND: CC(C)[C@H](NC(=O)[C@H](CO)NC(=O)CNC(=O)CNC(=O)[C@H](CCCNC(=N)N)NC(=O)[C@@H]1CCCN1C(=O)CC[C@H](NC(=O)c1ccc(N(C)Cc2cnc3nc(N)nc(N)c3n2)cc1)C(=O)O)C(N)=O [MTX-PRGGSV] ({DAMPA-γGlu}-PRGGSV-NH2)
pIC50: 5.29

###

Test system: Molt-3 T-cells
Assay: cells
Assay type: cell-based, human
Settings: 72 h
Starred links: 1 amine or outer side, 2 acyl side, 3 side chain; linkers in the order of their positions; H or OH if unused. Positions of bridges follow the written chain, without caps; N, C: chain ends. Non-standard residues stand in square brackets, D forms with d. Residues, ends and D or L forms follow the SMILES beside them. *: point of attachment. DAMPA = CN(Cc1cnc2nc(N)nc(N)c2n1)c1ccc(C(=O)*)cc1; γGlu = O=C(O)[C@H](CCC(=O)[*:2])N[*:1]; Pen = CC(C)(S)[C@H](N)C(=O)O

MOLECULE: CC(C)C[C@@H]1NC(=O)[C@H](C(C)C)NC(=O)[C@H](CO)NC(=O)CNC(=O)CNC(=O)[C@H](CCCNC(=N)N)NC(=O)[C@@H]2CCCN2C(=O)[C@@H](NC(=O)CC[C@H](NC(=O)c2ccc(N(C)Cc3cnc4nc(N)nc(N)c4n3)cc2)C(=O)O)C(C)(C)SSC[C@@H](C(=O)O)NC(=O)CNC(=O)[C@H]([C@@H](C)O)NC(=O)[C@H](C(C)C)NC1=O [MTX-cIBR] ({DAMPA-γGlu}-[Pen]PRGGSVLVTGC-OH; disulfide 1-12)
UNIT_NAME: nM
IC50: 2750
